Entries and their measured TGI follow.
tested on: HCT-15 colon; experiment: NCI tumour cell line growth inhibition, 48 h

COc1ccc(N2C(=O)C3c4[nH]c5ccccc5c4C4CC(C)(C)CC(C)(C)C4C3C2=O)cc1 (centres undefined)    > 100 µM

If you can, please state the reported TGI value of Cc1ccc(OCC2OC(n3cnc4nc(Nc5ccc(Cl)c(Cl)c5)nc(Cl)c43)CC2Oc2ccc(C)cc2)cc1 (centres undefined) . > 100 µM

Another compound to look at: COc1ccccc1C(=O)NO > 100 µM

Another compound to look at: Cc1cc(C)nc(NS(=O)(=O)c2ccc(Nc3c4ccccc4nc4c(C(=O)NC(CO)(CO)CO)cccc34)cc2)n1 > 100 µM

---

tested on: CAKI-1 renal; assay: NCI tumour cell line growth inhibition, 48 h
recordedEndpoint: TGI

O=C1C(=C([O-])c2ccccc2)C(=O)c2ccccc21.O=C1C(=C([O-])c2ccccc2)C(=O)c2ccccc21.[Mn+2]    > 100 µM
OC[C@H]1NC[C@@H](O)[C@@H](O)[C@H]1O    > 100 µM
O=C1C2CCCCC2C(=O)N1n1c(-c2ccccc2)n[nH]c1=O (configuration not stated)    > 100 µM
COc1cccc(/C=C/C(=O)c2sc(C(N)=S)nc2C)c1O    > 100 µM
O=C(Oc1c(Cl)cc(C2(c3cc(Cl)c(OC(=O)c4ccccc4)c(Cl)c3)CCCCC2)cc1Cl)c1ccccc1    18.5 µM
Clc1cc(Cl)c2cc3cccc[n+]3cc2c1Cl    21 µM

If you can, please state the reported TGI value of CSc1nn(C)cc2ncnc1-2 . > 100 µM

Another molecule to look at: CCOC(=O)C1=C(C)NC(=O)NC1CN1C(=O)c2ccccc2C1=O (configuration not stated) > 100 µM

Another molecule to look at: CC(C)(C)C(=O)Nc1cccc2oc(-c3ccccc3)cc12 > 100 µM

Another molecule to look at: CCOC(=O)C1(C/C=C/CCl)CCCC1=O (configuration not stated) 79.5 µM

Another molecule to look at: CCCCCCCCCCCCCC1=C(O)C(=O)C(CC2=C(O)C(=O)C(CCCCCCCCCCCCC)=C(O)C2=O)=C(O)C1=O > 100 µM

Another molecule to look at: O=C(NCCCNCCN1C(=O)c2cccc3cc([N+](=O)[O-])cc(c23)C1=O)c1cc(-c2ccccc2)nc2ccccc12 18.9 µM

---

test system: SK-MEL-5 melanoma; assay: NCI tumour cell line growth inhibition, 48 h; in the data active = GI50 below about 0.43 µM; inactive = the rest
Output constraint: value belongs to Y for active, N for inactive

# lookup: test call for COc1ccc(NC2=C(I)C(=O)c3ncccc3C2=O)cc1 Y

Another compound to look at: COc1ccc(C2CC(c3ccc(Nc4ccnc5cc(Cl)ccc45)cc3)=NN2C=O)cc1 (centres undefined) N

Another compound to look at: CCOC(=O)C1=C(C)NC(=O)NC1CN1C(=O)c2ccccc2C1=O (centres undefined) N

Another compound to look at: O=Nc1c(-c2c(O)[nH]c3cc(Br)ccc23)[nH]c2ccccc12 N

---

tested on: NCI-H460 lung; test: NCI tumour cell line growth inhibition, 48 h
Entries and their measured TGI follow.

Check out these entries, answers already filled in.
CCOC(=O)CC[C@H](NC(=O)N[C@H](C)c1ccccc1)C(=O)OCC    > 100 µM
O=C(O)c1ccccc1CC1Cc2cc3c(cc2C1)CCC3    > 100 µM
CCCCN1C(=O)c2c(Br)sc(Br)c2C1=O    > 100 µM
O=C(O)c1cc(=O)cc(C(=O)O)o1    > 100 µM
CC(=O)Nc1ccc(C(=O)NN2C(=O)CSC2c2ccc(O)cc2)cc1 (stereo not drawn)    > 100 µM
COc1cc2c(c(O)c1OC)C(=O)[C@@H]1CCC(=O)N1C2c1ccccc1 (stereo partly drawn)    > 100 µM
S=c1c2[nH]cnc2ncn1CCSC1=NC=NC2=NC=NC21 (stereo not drawn)    > 100 µM
COC1(C)C(=O)N2C1N(C(=O)OC(C)(C)C)CC2(C)C (stereo not drawn)    > 100 µM

If you can, please state the reported TGI value of CC(O)CN1c2ccccc2Sc2ccccc21 (stereo not drawn) . > 100 µM

Another compound to look at: CC(c1ccc2c(c1)CCC1C2CC2OC23CC=CC(=O)[C@]13C)C1C[C@]2(C)O[C@]2(C)[C@H](O)O1 (stereo partly drawn) > 100 µM

Another compound to look at: Nc1ccc(O)c2c1C(=O)c1c(N)ccc(O)c1C2=O > 100 µM

Another compound to look at: CC[C@@]1(O)C(=O)OCc2c1cc1n(c2=O)Cc2cc3ccccc3nc2-1 0.158 µM

Another compound to look at: CC(=O)O[C@H]1CCN2C(=O)C=CC(OCc3ccccc3)C12 (stereo partly drawn) > 100 µM

Another compound to look at: O=c1[nH]c(=O)n(C2CC(O)C(CO)O2)cc1C(F)(C(F)(F)F)C(F)(F)F (stereo not drawn) > 100 µM

Another compound to look at: CCOc1cn(C2OC(CO)C(O)C2O)c(=O)[nH]c1=O (stereo not drawn) > 100 µM

Another compound to look at: O=c1c2ccccc2c(/C=N\NC2=NCCN2)c2oc3ccccc3n12 39.5 µM

Another compound to look at: CCc1n[nH]c(=O)n1/N=C(\C)c1ccc([N+](=O)[O-])cc1 > 100 µM

Another compound to look at: C[C@@H](NS(=O)(=O)c1ccc(NC(=O)c2ccccc2)cc1)C(=O)O > 100 µM

Another compound to look at: Cc1cc2nc(C=C(C(F)(F)F)C(F)(F)F)sc2cc1C 16 µM

Another compound to look at: CC(C)(c1ccccc1)c1cc(O)c(C(C)(C)c2ccccc2)cc1O 7.53 µM

Another compound to look at: CN(C)CCNC(=O)c1cc(Cl)cc2cc3ccccc3nc12 2.41 µM

Another compound to look at: CC1(CO)COS(=O)OC1 (stereo not drawn) > 100 µM

Another compound to look at: CCC1C(C(=O)Nc2ccccc2C)=C(C)NC(C)=C1c1ccccc1C (stereo not drawn) > 67.1 µM

---

test system: ACHN renal; assay: NCI tumour cell line growth inhibition, 48 h; in the data active = GI50 below about 0.43 µM; inactive = the rest
Output constraint: value belongs to t for active, f for inactive

Solved entries:
N#CC1=C(N)NC(=S)NC12Nc1ccccc1S2 (stereo not given)    f
C#CC(=O)Nc1cccc2c1cc(C)n2-c1nc2c(c(NCc3ccccc3)n1)CCCC2    t
Cc1ccc2cccc(OC(=O)Nc3cccc(C(F)(F)F)c3)c2n1    f

# lookup: test call for O=c1cnnc(N/N=C/c2ccccc2O)[nH]1 f

Another compound to look at: O=C(c1ccc(C(F)(F)F)c(Cl)c1)N(Cc1ccc(Cl)cc1)c1ccc(-c2cc(C(F)(F)F)[nH]n2)c(O)c1 f

Another compound to look at: O=C(C=P(c1ccccc1)(c1ccccc1)c1ccccc1)CCl f

Another compound to look at: N#Cc1c(NC(=O)c2ccc(F)cc2)sc2c1CCCC2 f

---

test system: SNB-75 CNS; assay: NCI tumour cell line growth inhibition, 48 h; in the data active = GI50 below about 0.43 µM; inactive = the rest
Output constraint: value belongs to active, inactive

Cc1cc(N2CCCCC2)nc(NC2CCCC(Nc3ccnc4cc(Cl)ccc34)C2)n1 (stereo not given)    inactive

# lookup: test call for COc1cc(-c2nc3sc(C)cn3c2/C=C2\C(=O)Nc3ccccc32)c(Br)c(OC)c1OC inactive

Another compound to look at: COc1ccc(CCN(CC(=O)N(CC(N)=O)C2CCC[C@@H]2OCc2ccccc2)C(=O)CN(C(=O)CN(CCc2ccc(Cl)cc2)C(=O)CN(C(=O)CN(C)Cc2ccccc2F)[C@H](C)C2CCCCC2)[C@H](C)C2CCCCC2)cc1OC (stereo not given in full) inactive

Another compound to look at: COC(=O)c1cc2oc(/C=C3/SC(=S)N(N)C3=O)cc2n1Cc1ccccc1 inactive

Another compound to look at: O=Nc1c(-c2c(O)[nH]c3cc(Br)ccc23)[nH]c2ccccc12 active

Another compound to look at: Cn1cc(C2=C(c3cn(-c4ccccc4)c4ccccc34)C(=O)NC2=O)c2ccccc21 inactive

Another compound to look at: O=C(c1ccc(C(F)(F)F)c(Cl)c1)N(Cc1ccc(Cl)cc1)c1ccc(-c2cc(C(F)(F)F)[nH]n2)c(O)c1 inactive

Another compound to look at: C=CC(=O)N1C[C@@H]2CCOc3c(Cl)c(-c4c(O)cccc4F)c(F)c4ncnc(c34)N2C[C@H]1C inactive

Another compound to look at: COc1ccc(C2CC(c3ccc(Nc4ccnc5cc(Cl)ccc45)cc3)=NN2C=O)cc1 (stereo not given) inactive

Another compound to look at: N#CC(C#N)=C1CCOc2ccc(F)cc21 inactive

---

test system: NCI-H226 lung; experiment: NCI tumour cell line growth inhibition, 48 h
Note to self: values exactly at 30 µM are yes. So TGI at or above 30 µM is yes, below is no.

Solved entries:
N#Cc1ccc(-c2nc3c(N)nc(-c4ccccc4)nc3o2)cc1    yes
O=Nc1c(-c2c(O)[nH]c3cc(Br)ccc23)[nH]c2ccccc12    no
O=C(C=P(c1ccccc1)(c1ccccc1)c1ccccc1)CCl    no

// inclusive: TGI at least 30 µM? input: CC(C)(Oc1ccc(Cl)cc1)C(=O)N(C(=O)N1CCCCC1)c1ccccc1 yes

Another molecule to look at: CCOC(=O)CC[C@H](NC(=O)N[C@H](C)c1ccccc1)C(=O)OCC yes

Another molecule to look at: CN(C)CCNC(=O)c1cc(Cl)cc2cc3ccccc3nc12 no

Another molecule to look at: CC(=O)c1cc2c(s1)C(=O)c1sccc1C2=O no

Another molecule to look at: N#CC1=C2SCCN2C(=O)C(C#N)C12CCCCC2 (stereo unspecified) yes

These entries and their values trace back to PubChem BioAssay (NCI).
